pEC50 values for the compounds below.
- System: In-Vitro Vascular Smooth Muscle of Rabbits
- assay.summary: Relaxant effect on in vitro rabbit vascular smooth muscle contraction induced by hyperkalemia solution
- test.context: Oryctolagus cuniculus, relaxation of rabbit aortic rings contracted by hyperkalemia solution (K+ 60 mmol/L)
// pEC50 here means minus log10 of the molar concentration (mol/L)

Look over these answered cases.
c1ccc2c(c1)nnn2CCCCN1CCN(c2nsc3ccccc23)CC1 [Compound II-68]
4.77
Fc1ccc2c(C3CCN(CCCn4nnc5ccc(F)cc54)CC3)noc2c1 [II-14]
5.72
Clc1cccc(N2CCN(CCCCn3nnc4ccccc43)CC2)c1 [Compound II-63]
5.64
c1ccc2nc(C3CCN(CCCCn4nnc5ccccc54)CC3)cnc2c1 [II-34]
4.13
Cc1ccc2c(C3CCN(CCCn4nnc5ccccc54)CC3)noc2c1 [II-12]
5.09
Clc1cccc(C2CCN(CCCCn3cnc4ccccc43)CC2)c1 [Compound II-1]
4.69

Recorded pEC50 for c1ccc2c(c1)ncn2CCCCN1CCC(c2ccncc2)CC1 [II-30] with In-Vitro Vascular Smooth Muscle of Rabbits, please?
4.26

Which measured pEC50 belongs to COc1ccc2nnn(CCCCN3CCC(c4cccc(C(F)(F)F)c4)CC3)c2c1 [II-8] , tested on In-Vitro Vascular Smooth Muscle of Rabbits?
4.56

====

- System: In-Vitro Vascular Smooth Muscle of Rabbits
- assay.summary: Relaxant effect on in vitro rabbit vascular smooth muscle contraction induced by hyperkalemia solution
- test.context: Oryctolagus cuniculus, relaxation of rabbit aortic rings contracted by hyperkalemia solution (K+ 60 mmol/L)
Label key: true (1) means EC50 under 7 µM; false (0) means EC50 of 7 µM or more.

The examples below pair each entry with its known result.
Fc1ccc2nnn(CCCCN3CCC(c4cccc(C(F)(F)F)c4)CC3)c2c1 [II-7]
false (0)
FC(F)(F)c1cccc(C2CCN(CCCCn3cnc4ccccc43)CC2)c1 [Compound II-3]
true (1)
Fc1cccc(C2CCN(CCCCn3cnc4ccccc43)CC2)c1 [II-5]
false (0)
COc1ccccc1C1CCN(CCCCn2cnc3ccccc32)CC1 [Compound II-6]
false (0)
COC(=O)c1ccc2nnn(CCCCN3CCN(c4cccc(C(F)(F)F)c4)CC3)c2c1 [II-85]
false (0)

Does this compound meet the criterion EC50 < 7 µM? Clc1cccc(N2CCN(CCCCn3cnc4ccccc43)CC2)c1Cl [Compound II-37]
true (1)

# check: EC50 < 7 µM for COc1ccc2nnn(CCCN3CCC(c4noc5ccccc45)CC3)c2c1 [II-19]
false (0)

I wonder whether Fc1ccc2c(C3CCN(CCCn4nnc5ccc(Cl)cc54)CC3)noc2c1 [II-15] has EC50 below 7 µM. Can you tell?
false (0)

Lab log: compare recorded EC50 with 7 µM; is it strictly lower for O=Cc1ccc2nnn(CCCN3CCC(c4noc5cc(F)ccc45)CC3)c2c1 [II-18] ?
true (1)

Determine if c1cnc(C2CCN(CCCCn3cnc4ccccc43)CC2)nc1 [II-31] shows EC50 strictly lower than 7 µM.
false (0)

is_below(EC50, 7 µM) for FC(F)(F)c1cccc(C2CCN(CCCOn3nnc4ccccc43)CC2)c1 [II-10] ?
true (1)

Dear colleague, could you confirm whether EC50 of COc1ccc2c(C3CCN(CCCn4nnc5ccccc54)CC3)noc2c1 [II-13] falls below 7 µM? Thanks.
false (0)

Does this compound meet the criterion EC50 < 7 µM? FC(F)(F)c1cccc(C2CCN(CCCOn3cnc4ccccc43)CC2)c1 [II-11]
true (1)

Is the reported EC50 for Cc1cccc(N2CCN(CCCn3nnc4ccccc43)CC2)c1 [II-73] strictly below 7 µM?
true (1)

Decide: EC50 of Fc1ccc2c(N3CCN(CCCOn4nnc5ccccc54)CC3)noc2c1 [II-86] strictly below 7 µM?
false (0)

Check if EC50 falls below 7 µM for c1ccc2c(C3CCN(CCCCn4nnc5ccccc54)CC3)cccc2c1 [II-33] .
false (0)

Here's an entry: FC(F)(F)c1cccc(N2CCN(CCCCn3cnc4ccccc43)CC2)c1 [Compound II-36] . Is its EC50 below 7 µM?
true (1)
